TESTED_ON: native INOS (from immunostimulant-activated rat aortic smooth muscle cells) (Rattus norvegicus, UniProt Q06518)
Construct: endogenous in cells
ASSAY_REMARKS: NOS activity, kinetic 96-well microtiter plate assay, Fe2+-myoglobin oxidation
Assay type: biochemical
PROTOCOL_CONDITIONS: peptide 100 μg/ml; mean ± SEM, triplicate
Each entry below lists one item and its recorded NOS Activity (% of control) INOS value.
OUTCOME_MEASURE: NOS Activity (% of control) INOS

SSWRRKRKESS [BO58-08, 13; b114 cites it by residues 4-11] ... 92.1 ± 1.3 % of control
WRRKRK [BO58-07, 12] ... 91.1 ± 5.7 % of control
QEERKSYKVRF [BO58-09, 16] ... 101.1 ± 3.7 % of control
RPEQHKSYKIRF [BO58-10, 17] ... 99.7 ± 5.7 % of control
SDSRKSSGDGPDLR [BO58-11, 18] ... 99.7 ± 2.8 % of control
